- experiment_description: solvent given as SMILES
- cond: in CCO
readout_label: solvation free energy, 298 K (kcal/mol)
Could you give me the number in kcal/mol? Just the number is fine.

// worked examples, solvation free energy, 298 K included
O=C1OC(C(O)CO)C(O)=C1O (centres undefined) :: -17.7
c1ccc2c(c1)Cc1ccccc1-2 :: -8.93
N :: -2.65
c1ccc2c(c1)ccc1ccccc12 :: -10
c1ccc2c(c1)CCCC2 :: -6.29

Consider the compound shown here: Cc1ccc2cc(C)ccc2c1 What is its recorded solvation free energy, 298 K?
-8.85

Consider the compound shown here: CCOc1ccc(NC(C)=O)cc1 What is its recorded solvation free energy, 298 K?
-13.3

Consider the compound shown here: [HH] What is its recorded solvation free energy, 298 K?
1.47

Consider the compound shown here: CCCCCCCCCCCCCCCCCC What is its recorded solvation free energy, 298 K?
-10.3

Consider the compound shown here: CC(C)I What is its recorded solvation free energy, 298 K?
-3.98

Consider the compound shown here: O=C(c1ccccc1)C(O)c1ccccc1 (centres undefined) What is its recorded solvation free energy, 298 K?
-15

Consider the compound shown here: CCC1CCCCC1 What is its recorded solvation free energy, 298 K?
-4.47

Consider the compound shown here: CCCCBr What is its recorded solvation free energy, 298 K?
-4.22

Consider the compound shown here: O=C(O)c1ccccc1 What is its recorded solvation free energy, 298 K?
-9.71
